measure: melting point (°C)

A selection of reference data follows.
>>> value_measured("Cn1nccc(NC(=O)N2CCC(Oc3cc(F)ccc3F)CC2)c1=O [Example 69]")
138
>>> value_measured("Cc1ccc(Cl)c(OC2CCN(C(=O)Nc3ccnn(C)c3=O)CC2)c1 [Example 56]")
133
>>> value_measured("Cn1nccc(NCC(=O)N2CCC(Oc3cc(F)ccc3C(F)(F)F)CC2)c1=O [Example 2]")
140

[P] Cn1ncc(NC(=O)N2CCC(Oc3cc(C(F)(F)F)ccc3Cl)CC2)cc1=O [Example 73]
[Q] CCCCn1nccc(NCC(=O)N2CCC(Oc3ccccc3Cl)CC2)c1=O [Example 50]
Query block: Compare P and Q by numeric melting point and name the larger one. Your answer should be the label of the entry you select.
Result block: P

###

measure: melting point (°C)

A selection of reference data follows.
>>> value_measured("Cn1nccc(NC(=O)N2CCC(Oc3cc(F)c(F)cc3Br)CC2)c1=O [Example 71]")
143
>>> value_measured("Cn1nccc(NC(=O)N2CCC(Oc3ccccc3Cl)CC2)c1=O [Example 64]")
124
>>> value_measured("Cc1ccc(C(C)C)cc1OC1CCN(C(=O)Nc2ccnn(C)c2=O)CC1 [Example 57]")
104
>>> value_measured("Cn1nccc(NC(=O)N2CCC(Oc3cc(F)ccc3C(F)(F)F)CC2)c1=O [Example 61]")
145
>>> value_measured("CC(C)n1nccc(NCC(=O)N2CCC(Oc3ccccc3C(F)(F)F)CC2)c1=O [Example 49]")
180
>>> value_measured("Cn1nccc(NCC(=O)N2CCC(Oc3cc(Cl)ccc3Cl)CC2)c1=O [Example 12]")
162
>>> value_measured("Cn1nccc(NCC(=O)N2CCC(Oc3ccccc3[N+](=O)[O-])CC2)c1=O [Example 15]")
160

[A] CC(=O)c1ccc(F)cc1OC1CCN(C(=O)COc2ccnn(C)c2=O)CC1 [Example 23]
[B] Cn1nccc(NCC(=O)N2CCC(Oc3ccccc3C(F)(F)F)CC2)c1=O [Example 1]
Query block: Compare A and B by numeric melting point and name the larger one. Your answer should be the label of the entry you select.
Result block: A
(A: 192 °C, B: 50 °C)

###

Target sequence: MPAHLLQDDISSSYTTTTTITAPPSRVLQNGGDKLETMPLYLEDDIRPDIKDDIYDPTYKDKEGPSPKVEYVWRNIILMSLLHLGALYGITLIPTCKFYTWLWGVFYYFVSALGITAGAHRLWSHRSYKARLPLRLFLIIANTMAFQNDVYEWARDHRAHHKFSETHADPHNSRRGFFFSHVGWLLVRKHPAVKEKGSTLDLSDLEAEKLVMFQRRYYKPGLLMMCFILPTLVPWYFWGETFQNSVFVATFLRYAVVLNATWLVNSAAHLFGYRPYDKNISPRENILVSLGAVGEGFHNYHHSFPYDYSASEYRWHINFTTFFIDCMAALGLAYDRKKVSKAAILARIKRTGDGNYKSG
pIC50: −log10 of the molar value.
Consider the following compounds and their measured pIC50 readings.

>>> value_measured("Cn1nccc(NC(=O)N2CCC(Oc3cc(F)c(F)cc3Br)CC2)c1=O")
"7.00 to 8.00"
>>> value_measured("CC#CCn1nccc(NCC(=O)N2CCC(Oc3cc(C(F)(F)F)ccc3Cl)CC2)c1=O")
6.00
>>> value_measured("Cn1nccc(NCC(=O)N2CCC(Oc3ccccc3Cl)CC2)c1=O")
"6.00 to 7.00"
>>> value_measured("Cn1nccc(NC(=O)N2CCC(Oc3cc(F)ccc3Cl)CC2)c1=O")
"7.00 to 7.52"

Now examine the next entry.
Query block: Reported pIC50 for Cn1nccc(NCC(=O)N2CCC(Oc3cc(F)c(F)cc3Br)CC2)c1=O : what is it?
Result block: 7.00 to 7.52

###

Consider the following compounds and their measured IC50 readings.
Protein target, amino acids: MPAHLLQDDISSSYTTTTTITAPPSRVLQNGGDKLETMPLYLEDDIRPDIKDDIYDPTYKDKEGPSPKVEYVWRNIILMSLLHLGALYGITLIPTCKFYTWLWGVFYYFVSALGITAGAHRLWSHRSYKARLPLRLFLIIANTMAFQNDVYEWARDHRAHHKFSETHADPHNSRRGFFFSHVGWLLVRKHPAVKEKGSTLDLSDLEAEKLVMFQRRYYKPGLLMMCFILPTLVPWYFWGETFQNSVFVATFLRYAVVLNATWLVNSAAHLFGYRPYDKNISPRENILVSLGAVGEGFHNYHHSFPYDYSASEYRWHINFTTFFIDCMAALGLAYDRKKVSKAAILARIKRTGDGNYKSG

A selection of reference data follows.
>>> value_measured("Cc1ccc(F)cc1OC1CCN(C(=O)CNc2ccnn(C)c2=O)CC1")
"0.1 to 1 µM"
>>> value_measured("Cn1nccc(NCC(=O)N2CCC(Oc3cc(Br)ccc3Cl)CC2)c1=O")
"0.003 µM"
>>> value_measured("Cn1nccc(NC(=O)N2CCC(Oc3cc(F)cc(C(F)(F)F)c3)CC2)c1=O")
"0.3 µM"
>>> value_measured("O=C(CNc1ccnn(CCCC(F)(F)F)c1=O)N1CCC(Oc2cc(C(F)(F)F)ccc2Cl)CC1")
"0.1 to 1 µM"
>>> value_measured("Cn1nccc(NCC(=O)N2CCC(Oc3cc(Cl)ccc3Cl)CC2)c1=O")
"0.03 to 0.1 µM"

Query block: Reported IC50 for Cc1ccc(F)cc1OC1CCN(C(=O)Nc2ccnn(C)c2=O)CC1 : what is it?
Result block: 0.1 to 1 µM

Query block: Reported IC50 for CCCCCCCCC1=C(CCCCCCCC(=O)O)C1 [Sterculic acid, reference compound] : what is it?
Result block: 0.3 µM

Query block: Reported IC50 for Cn1nccc(NC(=O)N2CCC(Oc3cc(Br)ccc3Cl)CC2)c1=O : what is it?
Result block: 0.03 µM

Query block: Reported IC50 for Cn1nccc(NCC(=O)N2CCC(Oc3ccccc3C(F)(F)F)CC2)c1=O : what is it?
Result block: 0.1 to 1 µM

Query block: Reported IC50 for CN(CC(=O)N1CCC(Oc2ccccc2Cl)CC1)c1ccnn(C)c1=O : what is it?
Result block: 3 to 10 µM

###

measure: melting point (°C)

A selection of reference data follows.
>>> value_measured("Cn1nccc(NCC(=O)N2CCC(Oc3ccc(Cl)cc3Cl)CC2)c1=O")
152
>>> value_measured("Cn1ncc(OCC(=O)N2CCC(Oc3ccc(Cl)cc3Cl)CC2)cc1=O")
140
>>> value_measured("Cn1nccc(NCC(=O)N2CCC(Oc3cc(C(F)(F)F)ccc3Cl)CC2)c1=O")
158
>>> value_measured("Cn1nccc(NCC(=O)N2CCC(COc3cc(C(F)(F)F)ccc3Cl)C2)c1=O (stereo not drawn)")
183
>>> value_measured("Cn1nccc(NCC(=O)N2CCN(C(=O)c3ccccc3C(F)(F)F)CC2)c1=O")
170
>>> value_measured("Cn1nccc(NC(=O)N2CCC(Oc3cccc(C(F)(F)F)c3)CC2)c1=O")
101
>>> value_measured("Cn1nccc(NC(=O)N2CCC(Oc3cc(C(F)(F)F)ccc3F)CC2)c1=O")
102

[a] Cc1ccc(C)c(OC2CCN(C(=O)Nc3ccnn(C)c3=O)CC2)c1
[b] Cn1nccc(NCC(=O)N2CCC(Oc3ccc(Cl)c(Cl)c3)CC2)c1=O
Query block: Compare a and b by numeric melting point and name the larger one. Your answer should be the label of the entry you select.
Result block: b

###

measure: melting point (°C)

A selection of reference data follows.
>>> value_measured("Cn1nccc(NCC(=O)N2CC(COc3cc(C(F)(F)F)ccc3Cl)C2)c1=O")
174
>>> value_measured("Cc1ccccc1OC1CCN(C(=O)Nc2ccnn(C)c2=O)CC1")
124
>>> value_measured("Cn1nccc(OCC(=O)N2CCC(Oc3ccc(F)cc3Cl)CC2)c1=O")
135

[1] Cc1ccc(C(C)C)cc1OC1CCN(C(=O)CNc2ccnn(C)c2=O)CC1
[2] C[C@H](Nc1ccnn(C)c1=O)C(=O)N1CCC(Oc2cc(C(F)(F)F)ccc2Cl)CC1
Query block: Between 1 and 2 , which one has the lower reported melting point value? Your answer should be the label of the entry you select.
Result block: 2

[a] Cn1nccc(NCC(=O)N2CCN(C(=O)c3cc(F)ccc3C(F)(F)F)CC2)c1=O
[b] Cn1nccc(NC(=O)N2CCC(Oc3cc(Br)ccc3Cl)CC2)c1=O
Query block: Between a and b , which one has the lower reported melting point value? Your answer should be the label of the entry you select.
Result block: b

[I] Cn1nccc(NC(=O)N2CCC(Oc3ccc(Cl)c(Cl)c3)CC2)c1=O
[II] Cn1nccc(NCC(=O)N2CCC(CNc3cc(C(F)(F)F)ccc3Cl)CC2)c1=O
Query block: Between I and II , which one has the lower reported melting point value? Your answer should be the label of the entry you select.
Result block: II
(II: 64 °C, I: 154 °C)

[P] Cn1nccc(NCC(=O)N2CCC(Oc3cc(F)cc(C(F)(F)F)c3)CC2)c1=O
[Q] Cn1nccc(NC(=O)N2CCC(Oc3cc(F)ccc3Cl)CC2)c1=O
Query block: Compare P and Q by numeric melting point and name the larger one. Your answer should be the label of the entry you select.
Result block: P
